Reference source: PubChem BioAssay AID588780

Tested on: H9c2 cardiomyocytes, 2-deoxyglucose stress, ATP luminescence, 2 h
testSummary: H9c2 cell survival under 2-deoxyglucose stress – uHTS hits, dose response (AID 588780)
Calls of active or inactive are those of the source.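 The calls were made as follows: active = compounds whose fitted half-maximal concentration in the cell-protection dose series is at or below a set limit; inactive = the rest.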
The reply should name one outcome from y = active, n = inactive

O=c1[nH]nc(-c2ccc(NCCO)c([N+](=O)[O-])c2)c2ccccc12 = n
COC(=O)c1ccccc1NC(=O)c1nc2nc(C)cc(C)n2n1 = n
Cn1c(/C=N/NC(=O)c2ccccc2)nc2ccccc21 = n

In this assay, the call recorded for `O=C(CSc1ccc2nnc(-c3ccc(F)cc3)n2n1)N1CCCc2ccccc21` was what?
y

Also need `Cc1cc(C)c(C(=O)CC(=O)c2ccccc2Cl)c(O)c1` , thanks.
n

Also need `Cc1ccccc1NC(=O)COC(=O)CCc1nc2ccccc2c(=O)[nH]1` , thanks.
n
